Molecular target: Vascular endothelial growth factor receptor 3 (Homo sapiens)
Sequence (P35916 whole entry): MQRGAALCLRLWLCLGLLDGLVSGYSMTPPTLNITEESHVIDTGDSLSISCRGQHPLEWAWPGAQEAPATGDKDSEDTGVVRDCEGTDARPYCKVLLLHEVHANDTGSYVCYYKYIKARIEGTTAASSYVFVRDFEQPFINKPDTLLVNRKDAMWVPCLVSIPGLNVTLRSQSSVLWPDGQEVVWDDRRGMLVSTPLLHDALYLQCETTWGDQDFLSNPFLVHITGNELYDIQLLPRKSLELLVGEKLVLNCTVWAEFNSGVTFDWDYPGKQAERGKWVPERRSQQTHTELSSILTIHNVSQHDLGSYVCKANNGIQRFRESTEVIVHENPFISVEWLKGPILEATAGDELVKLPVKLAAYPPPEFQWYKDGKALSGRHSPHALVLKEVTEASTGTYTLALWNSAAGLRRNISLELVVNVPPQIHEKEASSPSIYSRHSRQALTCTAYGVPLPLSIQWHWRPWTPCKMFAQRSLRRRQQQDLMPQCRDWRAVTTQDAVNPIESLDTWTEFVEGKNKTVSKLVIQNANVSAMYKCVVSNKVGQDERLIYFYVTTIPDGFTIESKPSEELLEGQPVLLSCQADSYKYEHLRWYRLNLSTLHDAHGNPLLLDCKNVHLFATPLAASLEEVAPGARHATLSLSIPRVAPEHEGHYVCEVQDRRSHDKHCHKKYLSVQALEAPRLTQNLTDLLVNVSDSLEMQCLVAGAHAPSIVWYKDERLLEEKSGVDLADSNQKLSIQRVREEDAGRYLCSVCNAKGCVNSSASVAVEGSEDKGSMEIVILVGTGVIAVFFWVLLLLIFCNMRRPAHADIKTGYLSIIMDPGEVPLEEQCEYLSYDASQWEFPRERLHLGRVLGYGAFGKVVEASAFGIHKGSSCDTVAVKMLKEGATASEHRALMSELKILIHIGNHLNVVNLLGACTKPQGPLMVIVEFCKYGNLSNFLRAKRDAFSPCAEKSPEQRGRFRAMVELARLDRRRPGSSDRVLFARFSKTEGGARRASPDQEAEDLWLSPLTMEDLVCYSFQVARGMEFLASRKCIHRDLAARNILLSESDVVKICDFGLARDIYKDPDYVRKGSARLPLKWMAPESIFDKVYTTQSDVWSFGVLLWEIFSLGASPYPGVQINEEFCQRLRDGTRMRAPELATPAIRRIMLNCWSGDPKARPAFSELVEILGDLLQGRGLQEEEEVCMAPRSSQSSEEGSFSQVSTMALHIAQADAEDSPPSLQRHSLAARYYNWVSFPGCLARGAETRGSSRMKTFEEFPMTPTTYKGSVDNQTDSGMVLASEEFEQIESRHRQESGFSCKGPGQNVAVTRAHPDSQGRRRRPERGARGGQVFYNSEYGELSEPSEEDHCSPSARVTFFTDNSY
experimental.readout: IC50

>>> result("CC(C)OCc1ccc2c(c1)c1c3c(c4c(c1n2CCCO)Cc1ccccc1-4)C(=O)NC3")
"4 nM"

----------
Assay: Solubility was determined
Format: physicochemical
experimental.readout: solubility

>>> result("CC(C)OCc1ccc2c(c1)c1c3c(c4c(c1n2CCCO)Cc1ccccc1-4)C(=O)NC3")
"10 µg/mL"

----------
Experiment: Plasma level in rats at 30 mg/kg
Assay type: ADME, organism-based
Design: dose 30 mg/kg
Conditions: rat
experimental.readout: Cmax (ng/mL)

>>> measured_number("CC(C)OCc1ccc2c(c1)c1c3c(c4c(c1n2CCCO)Cc1ccccc1-4)C(=O)NC3 [CEP-5214]")
100

----------
Target: Mitogen-activated protein kinase 14 (Homo sapiens, UniProt Q16539)
Sequence (Q16539 whole entry): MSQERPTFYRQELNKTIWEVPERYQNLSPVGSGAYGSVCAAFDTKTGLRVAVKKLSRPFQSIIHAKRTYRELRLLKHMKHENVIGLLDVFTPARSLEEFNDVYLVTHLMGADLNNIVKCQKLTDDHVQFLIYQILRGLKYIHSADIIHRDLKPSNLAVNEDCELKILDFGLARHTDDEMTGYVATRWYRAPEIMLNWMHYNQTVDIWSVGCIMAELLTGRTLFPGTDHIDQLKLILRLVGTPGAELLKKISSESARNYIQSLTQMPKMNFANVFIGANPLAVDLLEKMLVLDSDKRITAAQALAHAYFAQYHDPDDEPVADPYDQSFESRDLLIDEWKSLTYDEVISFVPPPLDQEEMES
Experiment: Inhibition of Mitogen-activated protein kinase p38 alpha
experimental.readout: IC50

>>> result("CC(C)OCc1ccc2c(c1)c1c3c(c4c(c1n2CCCO)Cc1ccccc1-4)C(=O)NC3")
"> 10 µM"

----------
Biological target: Vascular endothelial growth factor receptor 2 (Homo sapiens, UniProt P35968)
Sequence (P35968 whole entry): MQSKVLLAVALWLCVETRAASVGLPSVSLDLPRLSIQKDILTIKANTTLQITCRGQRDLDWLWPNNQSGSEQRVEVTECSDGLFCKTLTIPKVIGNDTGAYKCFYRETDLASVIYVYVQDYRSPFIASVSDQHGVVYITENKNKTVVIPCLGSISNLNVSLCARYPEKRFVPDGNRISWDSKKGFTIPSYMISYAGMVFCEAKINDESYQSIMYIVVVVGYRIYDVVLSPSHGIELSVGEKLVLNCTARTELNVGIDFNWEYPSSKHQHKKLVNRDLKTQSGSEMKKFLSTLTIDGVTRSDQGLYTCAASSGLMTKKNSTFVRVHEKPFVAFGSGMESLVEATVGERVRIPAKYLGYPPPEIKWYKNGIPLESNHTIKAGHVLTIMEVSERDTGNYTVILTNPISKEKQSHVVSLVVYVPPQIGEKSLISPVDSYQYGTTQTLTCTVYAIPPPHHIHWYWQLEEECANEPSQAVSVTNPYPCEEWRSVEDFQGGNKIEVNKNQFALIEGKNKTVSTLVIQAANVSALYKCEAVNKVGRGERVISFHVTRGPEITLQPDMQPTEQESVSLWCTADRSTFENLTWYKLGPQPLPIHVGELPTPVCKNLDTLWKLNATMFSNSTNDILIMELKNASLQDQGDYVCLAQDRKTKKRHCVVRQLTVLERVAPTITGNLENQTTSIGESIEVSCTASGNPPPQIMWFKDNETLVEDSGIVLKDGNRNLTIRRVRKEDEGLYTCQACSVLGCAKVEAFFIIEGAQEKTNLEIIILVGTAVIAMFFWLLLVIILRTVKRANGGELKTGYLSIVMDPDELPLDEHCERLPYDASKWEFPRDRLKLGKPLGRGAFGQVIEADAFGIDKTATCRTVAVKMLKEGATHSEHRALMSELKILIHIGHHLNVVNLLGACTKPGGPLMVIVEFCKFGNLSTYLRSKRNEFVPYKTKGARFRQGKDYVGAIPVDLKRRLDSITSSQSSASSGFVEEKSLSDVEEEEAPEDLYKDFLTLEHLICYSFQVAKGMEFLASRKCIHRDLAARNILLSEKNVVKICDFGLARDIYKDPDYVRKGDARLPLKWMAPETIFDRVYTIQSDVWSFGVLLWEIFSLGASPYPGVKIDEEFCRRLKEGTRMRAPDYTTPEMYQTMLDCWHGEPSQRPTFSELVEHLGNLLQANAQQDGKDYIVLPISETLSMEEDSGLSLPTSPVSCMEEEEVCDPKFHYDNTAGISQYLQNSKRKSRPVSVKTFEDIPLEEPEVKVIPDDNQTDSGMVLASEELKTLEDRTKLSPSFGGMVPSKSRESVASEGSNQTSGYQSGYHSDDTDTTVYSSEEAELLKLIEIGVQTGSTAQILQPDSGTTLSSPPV
Assay: In vitro inhibitory concentration against human vascular endothelial growth factor receptor 2
IC50 strictly less than 0.1 µM = condition met. Otherwise condition not met.

>>> qualitative_label("CCC(CC)OCc1ccc2c(c1)c1c3c(c4c(c1n2CCCO)Cc1ccccc1-4)C(=O)NC3")
"condition met"
>>> qualitative_label("CC(C)[S+]([O-])Cc1ccc2c(c1)c1c3c(c4c(c1n2CCCO)Cc1ccccc1-4)C(=O)NC3 (stereo not given)")
"condition not met"
>>> qualitative_label("CC(=O)c1ccc2c(c1)c1c3c(c4c(c1n2CCCO)Cc1ccccc1-4)C(=O)NC3")
"condition not met"
>>> qualitative_label("Cc1ccc2c(c1)c1c3c(c4c(c1n2CCCO)Cc1ccccc1-4)C(=O)NC3")
"condition not met"
>>> qualitative_label("O=Cc1ccc2c(c1)c1c3c(c4c(c1n2CCCO)Cc1ccccc1-4)C(=O)NC3")
"condition not met"
>>> qualitative_label("O=C1NCc2c1c1c(c3c2c2cc(Br)ccc2n3CCCO)Cc2ccccc2-1")
"condition not met"
>>> qualitative_label("O=C1NCc2c1c1c(c3[nH]c4ccccc4c23)Cc2ccccc2-1")
"condition not met"
>>> qualitative_label("CC(C)CCOCc1ccc2c(c1)c1c3c(c4c(c1n2CCCO)Cc1ccccc1-4)C(=O)NC3")
"condition not met"
>>> qualitative_label("CC(C)OCc1ccc2[nH]c3c4c(c5c(c3c2c1)CNC5=O)-c1ccccc1C4")
"condition met"
>>> qualitative_label("O=C1NCc2c3c(c4[nH]c5ccccc5c4c21)Cc1ccccc1-3")
"condition not met"

----------
Target: Serine/threonine-protein kinase Chk2 (Homo sapiens)
Sequence (O96017 whole entry): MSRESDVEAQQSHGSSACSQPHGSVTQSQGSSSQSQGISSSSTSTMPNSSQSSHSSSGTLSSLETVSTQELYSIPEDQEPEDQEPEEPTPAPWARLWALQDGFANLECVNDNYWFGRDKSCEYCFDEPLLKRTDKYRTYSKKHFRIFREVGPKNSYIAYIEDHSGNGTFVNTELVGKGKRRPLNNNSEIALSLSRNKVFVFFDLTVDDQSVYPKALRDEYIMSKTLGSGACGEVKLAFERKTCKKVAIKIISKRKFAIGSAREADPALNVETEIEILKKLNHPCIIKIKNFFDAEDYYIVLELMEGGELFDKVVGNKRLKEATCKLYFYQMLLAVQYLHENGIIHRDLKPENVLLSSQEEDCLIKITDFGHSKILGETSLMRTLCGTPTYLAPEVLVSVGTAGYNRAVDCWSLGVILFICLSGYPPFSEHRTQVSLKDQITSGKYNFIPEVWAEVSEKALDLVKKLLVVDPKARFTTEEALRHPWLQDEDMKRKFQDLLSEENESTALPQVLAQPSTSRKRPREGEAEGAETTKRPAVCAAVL
pIC50: −log10 of the molar value.
experimental.readout: pIC50

>>> result("CC(C)OCc1ccc2c(c1)c1c3c(c4c(c1n2CCCO)Cc1ccccc1-4)C(=O)NC3")
"< 5.52"

----------
Molecular target: UniProtKB P35968
Assay: Inhibition of human Vascular endothelial growth factor receptor 2
pIC50: −log10 of the molar value.
experimental.readout: pIC50

>>> measured_number("CC(C)OCc1ccc2c(c1)c1c3c(c4c(c1n2CCCO)Cc1ccccc1-4)C(=O)NC3 [CEP-5214]")
8.10

----------
Biological target: Mitogen-activated protein kinase 8 (Homo sapiens, UniProt P45983)
Sequence (P45983 whole entry): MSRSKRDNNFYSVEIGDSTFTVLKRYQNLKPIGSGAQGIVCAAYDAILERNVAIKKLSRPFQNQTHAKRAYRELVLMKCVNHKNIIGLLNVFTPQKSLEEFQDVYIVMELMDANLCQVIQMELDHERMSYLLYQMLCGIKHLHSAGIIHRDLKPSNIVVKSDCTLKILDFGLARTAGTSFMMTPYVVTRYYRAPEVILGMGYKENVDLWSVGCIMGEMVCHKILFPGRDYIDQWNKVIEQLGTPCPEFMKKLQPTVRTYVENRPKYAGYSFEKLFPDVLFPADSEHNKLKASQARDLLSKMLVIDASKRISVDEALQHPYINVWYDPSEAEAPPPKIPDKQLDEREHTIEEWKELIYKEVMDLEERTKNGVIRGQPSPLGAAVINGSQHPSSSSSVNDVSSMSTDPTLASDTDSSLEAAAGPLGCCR
Assay: Inhibition of c-Jun N-terminal kinase 1-beta 1
experimental.readout: IC50 (nM)

>>> measured_number("CC(C)OCc1ccc2c(c1)c1c3c(c4c(c1n2CCCO)Cc1ccccc1-4)C(=O)NC3 [CEP-5214]")
448
